- Test system: 186277-243-T-J2-PDC complex spheroids, viability
- method_notes: Anticancer human tumor 186277-243-T-J2-PDC patient-derived colon adenocarcinoma cell line growth inhibition [RAS]
- applied_conditions: curve of first compound; second compound 0.1 µM
pIC50: −log10 of the molar value.
In this section we review reported pIC50 values for a set of compounds.
property_label: pIC50

CCC(CC)c1cc(NC2CCC(N)C2)n2nccc2n1 (stereo not given) + C#Cc1c(F)ccc2cc(O)cc(-c3ncc4c(N5CC6CCC(C5)N6)nc(OCC56CCCN5CC(F)C6)nc4c3F)c12; 6.25
Nc1ccn(C2OC(CO)C(O)C2(F)F)c(=O)n1 (stereo not given) + C=CC(=O)N1CCN(c2nc(OCC3CCCN3C)nc3c(F)c(-c4nc(N)cc(C)c4C(F)(F)F)c(Cl)cc23)C(C)C1; 8.36
CCN1CCN(Cc2ccc(Nc3ncc(F)c(-c4cc(F)c5nc(C)n(C(C)C)c5c4)n3)nc2)CC1 + C#Cc1c(F)ccc2cc(O)cc(-c3ncc4c(N5CC6CCC(C5)N6)nc(OCC56CCCN5CC(F)C6)nc4c3F)c12; 7.83
O=C(c1ccc(F)c(F)c1Nc1ccc(I)cc1F)N1CC(O)([C@@H]2CCCCN2)C1 + C#Cc1c(F)ccc2cc(O)cc(-c3ncc4c(N5CC6CCC(C5)N6)nc(OCC56CCCN5CC(F)C6)nc4c3F)c12; 8.49
CC(C)NCC(C(=O)N1CCN(c2ncnc3c2C(C)CC3O)CC1)c1ccc(Cl)cc1 (stereo not given) + C#Cc1c(F)ccc2cc(O)cc(-c3ncc4c(N5CC6CCC(C5)N6)nc(OCC56CCCN5CC(F)C6)nc4c3F)c12; 6.93
CC(C)NCC(C(=O)N1CCN(c2ncnc3c2C(C)CC3O)CC1)c1ccc(Cl)cc1 (stereo not given) + C=CC(=O)N1CCN(c2nc(OCC3CCCN3C)nc3c(F)c(-c4nc(N)cc(C)c4C(F)(F)F)c(Cl)cc23)C(C)C1; 5.69
CCC(CC)c1cc(NC2CCC(N)C2)n2nccc2n1 (stereo not given) + C=CC(=O)N1CCN(c2nc(OCC3CCCN3C)nc3c(F)c(-c4nc(N)cc(C)c4C(F)(F)F)c(Cl)cc23)C(C)C1; 5.81

---

- System: 186277-243-T-J2-PDC complex spheroids, viability
- method_notes: Anticancer human tumor 186277-243-T-J2-PDC cell line growth inhibition [RAS]; active means viability on the fitted dose curve at most 10% of control; inactive means the rest;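 note: spheroids exposed to compounds for 7 days before viability read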
- applied_conditions: second compound 0.316 µM; first compound 1 µM
Outcomes: active, inactive

C=CC(=O)Nc1cc(Nc2nccc(-c3cn(C)c4ccccc34)n2)c(OC)cc1N(C)CCN(C)C + C#Cc1c(F)ccc2cc(O)cc(-c3ncc4c(N5CC6CCC(C5)N6)nc(OCC56CCCN5CC(F)C6)nc4c3F)c12; active
CC1(O)CCCC1n1c(=O)c(C(F)F)cc2cnc(NC3CCN(S(C)(=O)=O)CC3)nc21 (centres undefined) + C#Cc1c(F)ccc2cc(O)cc(-c3ncc4c(N5CC6CCC(C5)N6)nc(OCC56CCCN5CC(F)C6)nc4c3F)c12; inactive
CCC(CC)c1cc(NC2CCC(N)C2)n2nccc2n1 (centres undefined) + C=CC(=O)N1CCN(c2nc(OCC3CCCN3C)nc3c(F)c(-c4nc(N)cc(C)c4C(F)(F)F)c(Cl)cc23)C(C)C1; inactive
O=C(c1ccc(F)c(F)c1Nc1ccc(I)cc1F)N1CC(O)([C@@H]2CCCCN2)C1 + C=CC(=O)N1CCN(c2nc(OCC3CCCN3C)nc3c(F)c(-c4nc(N)cc(C)c4C(F)(F)F)c(Cl)cc23)C(C)C1; inactive
CC(=O)OC12COC1CC(O)C1(C)C(=O)C(O)C3=C(C)C(OC(=O)C(O)C(NC(=O)OC(C)(C)C)c4ccccc4)CC(O)(C(OC(=O)c4ccccc4)C21)C3(C)C (centres undefined) + C=CC(=O)N1CCN(c2nc(OCC3CCCN3C)nc3c(F)c(-c4nc(N)cc(C)c4C(F)(F)F)c(Cl)cc23)C(C)C1; active
Nc1ccn(C2OC(CO)C(O)C2(F)F)c(=O)n1 (centres undefined) + C=CC(=O)N1CCN(c2nc(OCC3CCCN3C)nc3c(F)c(-c4nc(N)cc(C)c4C(F)(F)F)c(Cl)cc23)C(C)C1; inactive
CC(=O)OC12COC1CC(O)C1(C)C(=O)C(O)C3=C(C)C(OC(=O)C(O)C(NC(=O)OC(C)(C)C)c4ccccc4)CC(O)(C(OC(=O)c4ccccc4)C21)C3(C)C (centres undefined) + C#Cc1c(F)ccc2cc(O)cc(-c3ncc4c(N5CC6CCC(C5)N6)nc(OCC56CCCN5CC(F)C6)nc4c3F)c12; active
Cc1nc(N2CCC3(CC2)COC(C)C3N)c(CO)nc1Sc1ccnc(N)c1Cl (centres undefined) + C#Cc1c(F)ccc2cc(O)cc(-c3ncc4c(N5CC6CCC(C5)N6)nc(OCC56CCCN5CC(F)C6)nc4c3F)c12; active
Cc1nc(N2CCC3(CC2)COC(C)C3N)c(CO)nc1Sc1ccnc(N)c1Cl (centres undefined) + C=CC(=O)N1CCN(c2nc(OCC3CCCN3C)nc3c(F)c(-c4nc(N)cc(C)c4C(F)(F)F)c(Cl)cc23)C(C)C1; inactive

FYI, the data here is from PubChem BioAssay AID2060908.
